Biological target: human GM-CSF T117 isoform (human, UniProt P04141 18-144)
Sequence (P04141 18-144 I117T limits assumed): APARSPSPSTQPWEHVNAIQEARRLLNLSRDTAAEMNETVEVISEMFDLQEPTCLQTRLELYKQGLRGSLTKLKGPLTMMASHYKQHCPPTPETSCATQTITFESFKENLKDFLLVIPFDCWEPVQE
Experiment: cell-based or functional assay
property name: IC50 (pM), inhibition of GM-CSF induced TF-1 proliferation (32 pM GM-CSF, average n = 3)

| binder | result |
| --- | --- |
| humanized parental anti-GM-CSF 4K21 VH3-07.1AL+VK2-A3.2 hIgG1 K antibody (MSB0010439) (antibody, V domains shown, hIgG1 kappa; also called humanized parental 4K21 hVH hVL; humanized parental 4K21) VH: EVQLVESGGGLVQPGGSLRLSCAASGFAFSAYDMSWVRQAPGKRLELVAYISSGGSSFYYPDTVKGRFTISRDNAKNSLYLQMNSLRAEDTAVYYCTRHLGFDYWGQGTLVTVSS VL: DIVMTQSPLSLPVTPGEPASISCRSSQSLVNSNGNTYLHWYLQKPGQSPQLLIYKVSNRFSGVPDRFSGSGSGTDFTLKISRVEAEDVGVYYCSQSTHVPPTFGQGTKVEIK | 1400 |
